Would you kindly list normalized growth for each of these compounds?
Test summary: chemical genetic growth profiling, strain panel (AID 1159580);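 note: tested at 20 µM; growth read once vehicle control cultures reached saturation at 30 °C; 1 = growth at the plate median or of vehicle wells; lower values mean less growth of the strain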
Assay setup: S. cerevisiae deletion strains, growth OD, locus YLR027C, strain aat2, stronger effect = lower value
Where a name gives a salt, the structure may show the parent alone. Out of some 5,500 compounds screened, about 2,000 (36%) were called active. About 18% were inconclusive and are not listed. This is one part of the list. Where a SMILES comes first, the peptide text is derived from it. The star is where a group is joined. Tfa = O=C(C(F)(F)F)*
Numbers only.

>>> assay_result("CCCCN1CCCCC1C(=O)Nc1c(C)cccc1C (stereo not given)")
0.991

# batch: return normalized growth for each of the 7 compounds below
1. CC(C)NCC(O)c1cc(O)cc(O)c1 (stereo not given)
2. O=C1OC(c2ccc(O)cc2)(c2ccc(O)cc2)c2ccccc21
3. O=C1OC2(c3ccc(O)cc3Oc3cc(O)ccc32)c2ccccc21
4. CCOC(=O)Nc1nc2ccccc2[nH]1
5. O=C1[C@H](CCC(O)c2ccc(F)cc2)[C@@H](c2ccc(O)cc2)N1c1ccc(F)cc1 (stereo not given in full)
6. CC(C)C(C)/C=C/C(C)[C@H]1CCC2C3=CCC4CC(=O)CC[C@]4(C)C3CC[C@@]21C (stereo not given in full)
7. CC(C)C(NC(=O)C(Cc1ccc(O)cc1)NC(=O)C(NC(=O)C(F)(F)F)C(C)C)C(=O)O (stereo not drawn) (Tfa-Val-Tyr-Val-OH; configuration not given here)

Out:
1. 0.998
2. 0.983
3. 1.01
4. 0.985
5. 0.98
6. 1.01
7. 0.991

# batch: return normalized growth for each of the 2 compounds below
1. Nc1ccc(N=Nc2ccccc2)c(N)n1
2. CC(C)NCC(O)COc1cccc2ccccc12 (stereo not given)

Out:
0.802
1.01
